Please provide measured Split Luciferase Assay %Lum Avg for the entries that follow.
# assay target: FGF14:Nav1.6 C-tail complex (Homo sapiens, UniProt Q92915+Q9UQD0)
# Construct: polymerase chain reaction (PCR) amplification of the FGF14 open reading frame (nt 1–855); C-terminal fragment of Nav1.6 (amino acids 1763–1976) fused with CD4ΔC-tail (amino acids 1–395); expressed in transfected cells
# Sequence (Q92915 1-252 isoform Q92915-2): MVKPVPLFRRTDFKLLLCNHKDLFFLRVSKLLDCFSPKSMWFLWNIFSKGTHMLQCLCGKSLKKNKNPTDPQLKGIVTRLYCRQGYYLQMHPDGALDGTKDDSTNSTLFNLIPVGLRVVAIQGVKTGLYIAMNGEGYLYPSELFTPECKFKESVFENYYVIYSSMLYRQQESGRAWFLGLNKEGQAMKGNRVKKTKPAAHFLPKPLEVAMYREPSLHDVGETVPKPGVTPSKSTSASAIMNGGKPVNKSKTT
# Sequence (Q9UQD0 1763-1976 limits assumed): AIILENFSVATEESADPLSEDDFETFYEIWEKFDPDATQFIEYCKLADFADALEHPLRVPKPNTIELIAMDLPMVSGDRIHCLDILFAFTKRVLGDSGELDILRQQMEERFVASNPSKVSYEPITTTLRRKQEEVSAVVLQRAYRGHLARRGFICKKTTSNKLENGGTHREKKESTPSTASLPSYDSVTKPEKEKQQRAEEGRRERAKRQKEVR
# test: Split-luciferase complementation assay (LCA) in Clone V double stable HEK293 cells
# Assay type: cell-based
# condition parameters: average of Set 1 and Set 2; normalized to 0.3% DMSO controls
Counter-ions that a name gives are not always drawn.
Enter the number, and then the unit.

**Q:** Tell me its Split Luciferase Assay %Lum Avg on FGF14:Nav1.6 C-tail complex (Homo sapiens, UniProt Q92915+Q9UQD0): CC(=O)O[C@@]12CO[C@@H]1C[C@H](O)[C@@]1(C)C(=O)[C@H](O)C3=C(C)[C@@H](OC(=O)[C@H](O)[C@@H](NC(=O)OC(C)(C)C)c4ccccc4)C[C@@](O)([C@@H](OC(=O)c4ccccc4)[C@H]21)C3(C)C
**A:** 164.63%

**Q:** Recall the reported Split Luciferase Assay %Lum Avg of COc1cc([C@@H]2c3cc4c(cc3[C@@H](O[C@@H]3O[C@@H]5CO[C@@H](c6cccs6)O[C@H]5[C@H](O)[C@H]3O)[C@H]3COC(=O)[C@H]23)OCO4)cc(OC)c1O [Teniposide] when tested on FGF14:Nav1.6 C-tail complex (Homo sapiens, UniProt Q92915+Q9UQD0).
**A:** 122.89%

**Q:** Fill in Split Luciferase Assay %Lum Avg for O=c1[nH]cc(F)c(=O)[nH]1 tested with FGF14:Nav1.6 C-tail complex (Homo sapiens, UniProt Q92915+Q9UQD0).
**A:** 112.23%

**Q:** GET Split Luciferase Assay %Lum Avg | system: FGF14:Nav1.6 C-tail complex (Homo sapiens, UniProt Q92915+Q9UQD0) | item: CCCCCOC(=O)Nc1nc(=O)n([C@@H]2O[C@H](C)[C@@H](O)[C@H]2O)cc1F
**A:** 119.35%

**Q:** Recall the reported Split Luciferase Assay %Lum Avg of Nc1ccn([C@@H]2O[C@H](CO)[C@@H](O)[C@@H]2O)c(=O)n1 [Cytarabine hydrochloride] when tested on FGF14:Nav1.6 C-tail complex (Homo sapiens, UniProt Q92915+Q9UQD0).
**A:** 97.88%

**Q:** Find Split Luciferase Assay %Lum Avg for Nc1ncn([C@H]2C[C@H](O)[C@@H](CO)O2)c(=O)n1 [Decitabine, reference compound] on FGF14:Nav1.6 C-tail complex (Homo sapiens, UniProt Q92915+Q9UQD0) and write it down.
**A:** 191.40%

**Q:** Print FGF14:Nav1.6 C-tail complex (Homo sapiens, UniProt Q92915+Q9UQD0) Split Luciferase Assay %Lum Avg for Cc1cc(Nc2cc(N3CCN(C)CC3)nc(Sc3ccc(NC(=O)C4CC4)cc3)n2)[nH]n1 .
**A:** 53.39%

**Q:** Give Split Luciferase Assay %Lum Avg for this entry on FGF14:Nav1.6 C-tail complex (Homo sapiens, UniProt Q92915+Q9UQD0): O=c1[nH]nc(Sc2ncc([N+](=O)[O-])s2)n1-c1ccc2c(c1)OCCO2
**A:** 2.27%

**Q:** Identify measured Split Luciferase Assay %Lum Avg obtained with FGF14:Nav1.6 C-tail complex (Homo sapiens, UniProt Q92915+Q9UQD0) for NC(=O)NO [Hydroxyurea] .
**A:** 100.91%

**Q:** Name the recorded Split Luciferase Assay %Lum Avg of Clc1ccc(C(c2ccccc2Cl)C(Cl)Cl)cc1 (stereo not drawn) , assay system FGF14:Nav1.6 C-tail complex (Homo sapiens, UniProt Q92915+Q9UQD0).
**A:** 30.33%

**Q:** Enter measured Split Luciferase Assay %Lum Avg, system FGF14:Nav1.6 C-tail complex (Homo sapiens, UniProt Q92915+Q9UQD0), for the compound shown: COc1cc(O)c2c(c1)[C@H]1O[C@@H]1C[C@H](O)[C@H](O)C(=O)/C=C\C[C@H](C)OC2=O
**A:** 51.24%

**Q:** Report Split Luciferase Assay %Lum Avg from FGF14:Nav1.6 C-tail complex (Homo sapiens, UniProt Q92915+Q9UQD0) testing of CC(=O)OCCN1C(=O)c2c(C)nc3ccc(S(=O)(=O)N4CCOCC4)cc3c2C1=O
**A:** 86.32%

**Q:** State Split Luciferase Assay %Lum Avg on FGF14:Nav1.6 C-tail complex (Homo sapiens, UniProt Q92915+Q9UQD0). Entry: CO[C@@]12[C@H](COC(N)=O)C3=C(C(=O)C(C)=C(N)C3=O)N1C[C@@H]1N[C@@H]12
**A:** 104.45%

**Q:** Using FGF14:Nav1.6 C-tail complex (Homo sapiens, UniProt Q92915+Q9UQD0) as the test system, report measured Split Luciferase Assay %Lum Avg of Cc1ccc([N+](=O)[O-])cc1S(=O)(=O)N(C)/N=C/c1cnc2ccc(Br)cn12 [PIK 75, reference compound] .
**A:** 38.11%

**Q:** Give Split Luciferase Assay %Lum Avg for CN(C)c1nc(N(C)C)nc(N(C)C)n1 tested on FGF14:Nav1.6 C-tail complex (Homo sapiens, UniProt Q92915+Q9UQD0).
**A:** 107.74%
